SYSTEM_TESTED: CDK2/Cyclin E1 (Homo sapiens, UniProt P24941)
PROTOCOL_TEXT: CDK2/Cyclin E1 TR-FRET biochemical assay, 1 mM ATP
CONDITION: 0.15 μM Rb (Ser780)-biotin substrate, 90 min reaction, Table 2
Description: Compounds disclosed herein were tested for inhibition of CDK2/Cyclin E1 or CDK1/Cyclin B kinase in an assay based on the time-resolved fluorescence-resonance energy transfer (TR-FRET) methodology. […] Plates were incubated at room temperature for 60 minutes, and the TR-FRET signals (ex337 nm, em665 nm/620 nm) were recorded on a PHERAstar FSX plate reader (BMG Labtech). […]
pIC50: −log10 of the molar value.
ATTRIBUTE_MEASURED: pIC50

molecule="Cc1nc(C2CCC(c3cc(Nc4ccc5c(c4F)CS(=O)(=O)N5)n[nH]3)C2)oc1C(C)(C)C (stereo not drawn)" test_value=8.02
molecule="CC(C)(C)c1cnc(C2CCC(c3cc(Nc4ccc5c(c4F)CNS5(=O)=O)n[nH]3)C2)s1 (stereo not drawn)" test_value=5.14
molecule="CC(C)c1cnc(C2CCC(c3cc(Nc4ccc5c(c4F)CN=S5(C)=O)n[nH]3)C2)o1 (stereo not drawn)" test_value=8.27
molecule="Cc1cc(C(C)(C)C)cc(C2CCC(c3cc(Nc4ccc5c(c4F)CS(=O)(=O)N5)n[nH]3)C2)n1 (stereo not drawn)" test_value=6.55
molecule="CC(C)c1ccnc(C2CCC(c3cc(Nc4cc5c(cc4F)S(=O)(=O)NC5)n[nH]3)C2)n1 (stereo not drawn)" test_value=7.92
molecule=CN1c2ccc(Nc3cc([C@@H]4CC[C@H](c5ncc(C(C)(C)C)o5)C4)[nH]n3)cc2CS1(=O)=O test_value=7.92

###

SYSTEM_TESTED: CDK2/Cyclin E1 (Homo sapiens, UniProt P24941)
PROTOCOL_TEXT: CDK2/Cyclin E1 TR-FRET biochemical assay, 0.060 mM ATP
CONDITION: 0.15 μM Rb (Ser780)-biotin substrate, 120 min reaction, Table 1
Classes based on IC50: I: < 10 nM; II: ≥ 10 nM and < 300 nM; III: ≥ 300 nM

molecule="O=c1c(C2CC2)csn1[C@H]1CC[C@@H](c2cc(Nc3ccc4c(c3F)CNS4(=O)=O)n[nH]2)C1 (relative stereo) [Example 54]" system_tested="CDK2/Cyclin E1 (Homo sapiens, UniProt P24941)" assigned_label=II
molecule="CC(C)c1cnn([C@H]2CC[C@@H](c3cc(Nc4ccc5c(c4F)CNS5(=O)=O)n[nH]3)C2)c(=O)c1 (relative stereo) [Example 33]" system_tested="CDK2/Cyclin E1 (Homo sapiens, UniProt P24941)" assigned_label=I
molecule="CC(C)n1ccn([C@H]2CC[C@@H](c3cc(Nc4ccc5c(c4F)CNS5(=O)=O)n[nH]3)C2)c1=O (relative stereo) [Example 83]" system_tested="CDK2/Cyclin E1 (Homo sapiens, UniProt P24941)" assigned_label=III
molecule="CC(C)n1cnnc1O[C@@H]1CC[C@H](c2cc(Nc3ccc4c(c3F)CNS4(=O)=O)n[nH]2)C1 (relative stereo) [Example 57]" system_tested="CDK2/Cyclin E1 (Homo sapiens, UniProt P24941)" assigned_label=III
molecule="CC(C)c1ccnnc1O[C@@H]1CC[C@H](c2cc(Nc3ccc4c(c3F)CNS4(=O)=O)n[nH]2)C1 (relative stereo) [Example 27]" system_tested="CDK2/Cyclin E1 (Homo sapiens, UniProt P24941)" assigned_label=I
molecule="O=c1c(-c2ccccc2)ccnn1[C@H]1CC[C@@H](c2cc(Nc3ccc4c(c3F)CNS4(=O)=O)n[nH]2)C1 (relative stereo) [Example 30]" system_tested="CDK2/Cyclin E1 (Homo sapiens, UniProt P24941)" assigned_label=III
molecule="CC(C)(C)n1cnnc1O[C@@H]1CC[C@H](c2cc(Nc3ccc4c(c3F)CNS4(=O)=O)n[nH]2)C1 (relative stereo) [Example 59]" system_tested="CDK2/Cyclin E1 (Homo sapiens, UniProt P24941)" assigned_label=I
molecule="CCc1cnc(C2CCC(c3cc(Nc4ccc5c(c4F)CNS5(=O)=O)n[nH]3)C2)o1 (stereo not shown) [Example 92]" system_tested="CDK2/Cyclin E1 (Homo sapiens, UniProt P24941)" assigned_label=II
molecule="CC(C)c1csnc1O[C@@H]1CC[C@H](c2cc(Nc3ccc4c(c3F)CNS4(=O)=O)n[nH]2)C1 (relative stereo) [Example 55]" system_tested="CDK2/Cyclin E1 (Homo sapiens, UniProt P24941)" assigned_label=II
molecule="O=S1(=O)NCc2c1ccc(Nc1cc([C@H]3CC[C@@H](Oc4nnccc4C4CCC4)C3)[nH]n1)c2F (relative stereo) [Example 35]" system_tested="CDK2/Cyclin E1 (Homo sapiens, UniProt P24941)" assigned_label=I
molecule="O=S1(=O)NCc2c1ccc(Nc1cc([C@H]3CC[C@@H](Oc4ccccn4)C3)[nH]n1)c2F (relative stereo) [Example 46]" system_tested="CDK2/Cyclin E1 (Homo sapiens, UniProt P24941)" assigned_label=III
